- Tested on: CCRF-CEM
- METHOD_SUMMARY: NCI tumour cell line growth inhibition, 48 h
The source made the active and inactive calls. Rule as the data show it: active = GI50 up to about 1.1 µM and inactive = higher.
READOUT_KIND: GI50

>  <MOLECULE>
C[C@H](NC(=O)c1ccc(CNC(=O)/C=C/c2cccc(Oc3ccccc3)c2)cc1)c1ccccc1

>  <REPORTED_RESULT>
> 100 µM (inactive)

$$$$
>  <MOLECULE>
O=C1OC(c2ccc(Cl)c3ccccc23)c2ccccc21 (stereo not given)

>  <REPORTED_RESULT>
91.6 µM (inactive)

$$$$
>  <MOLECULE>
C[C@H](O)C1CC(Cn2nnc3c(N)ncnc32)C1(C)C (stereo not given in full)

>  <REPORTED_RESULT>
> 100 µM (inactive)

$$$$
>  <MOLECULE>
COc1ccc(/C=C/C(=O)c2sc(-n3nc(-c4ccccc4)cc3-c3ccccc3)nc2C)cc1OC

>  <REPORTED_RESULT>
23.2 µM (inactive)

$$$$
>  <MOLECULE>
O=C(CCSC1=NCCCN1)c1ccc(F)cc1

>  <REPORTED_RESULT>
2.61 µM (inactive)

$$$$
